target: Axl (UniProt P30530); experiment: ELISA, 1:3 dilution
Sequence (P30530 26-451 limits assumed): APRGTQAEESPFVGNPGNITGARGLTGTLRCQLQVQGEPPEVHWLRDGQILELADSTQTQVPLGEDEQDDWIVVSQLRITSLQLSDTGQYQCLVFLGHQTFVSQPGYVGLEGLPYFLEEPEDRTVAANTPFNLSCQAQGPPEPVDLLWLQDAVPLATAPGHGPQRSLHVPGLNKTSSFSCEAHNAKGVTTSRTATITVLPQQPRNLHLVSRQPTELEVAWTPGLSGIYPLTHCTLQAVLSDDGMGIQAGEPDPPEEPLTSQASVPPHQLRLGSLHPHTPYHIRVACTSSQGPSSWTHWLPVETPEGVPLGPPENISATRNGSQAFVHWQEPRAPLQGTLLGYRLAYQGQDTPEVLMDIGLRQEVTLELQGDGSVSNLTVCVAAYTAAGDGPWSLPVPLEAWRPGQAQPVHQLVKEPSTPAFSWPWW
Examples of binders with documented Affinity ELISA CPE mutant ratio (1:3, pH 6.0/7.4) follow.
metricName: Affinity ELISA CPE mutant ratio (1:3, pH 6.0/7.4)

binder: HC-W110P (antibody, V domains shown) VH: EVQLVQSGAEVKKPGATVKISCKVSGYSFTGHTMNWIRQPPGKGLEWIGLIKPSNGGTSYNQKFKGRVTISADKSISTAYLQWSSLKASDTAMYYCAHGHYESYFAMDYPGQGTLVTVSS VL: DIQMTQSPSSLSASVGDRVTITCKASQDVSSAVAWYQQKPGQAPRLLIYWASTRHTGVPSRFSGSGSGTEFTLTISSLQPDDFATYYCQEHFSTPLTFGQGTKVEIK
reported: 6.49

binder: LC-P095V (antibody, V domains shown) VH: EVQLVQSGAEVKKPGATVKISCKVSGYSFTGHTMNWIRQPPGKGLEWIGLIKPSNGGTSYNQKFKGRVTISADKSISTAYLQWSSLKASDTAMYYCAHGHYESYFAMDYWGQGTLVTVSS VL: DIQMTQSPSSLSASVGDRVTITCKASQDVSSAVAWYQQKPGQAPRLLIYWASTRHTGVPSRFSGSGSGTEFTLTISSLQPDDFATYYCQEHFSTVLTFGQGTKVEIK
reported: 1.87

binder: HC-Y101N (antibody, V domains shown) VH: EVQLVQSGAEVKKPGATVKISCKVSGYSFTGHTMNWIRQPPGKGLEWIGLIKPSNGGTSYNQKFKGRVTISADKSISTAYLQWSSLKASDTAMYYCAHGHNESYFAMDYWGQGTLVTVSS VL: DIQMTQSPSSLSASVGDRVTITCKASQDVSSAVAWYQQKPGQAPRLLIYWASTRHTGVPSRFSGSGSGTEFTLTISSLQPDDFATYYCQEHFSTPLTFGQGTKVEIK
reported: 2.17
